# System: Fibrinogen (Alexa647-labelled)
# PROTOCOL_DETAILS: Alexa647-fibrinogen binding to printed small molecules – biochemical, small-molecule microarray, 635/667 nm fluorescence, artefact control for SMM control-protein annotation, profiling panel (AID 1131);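 note: z-score merges 667 nm fluorescence with per-spot signal-to-noise over triplicate slides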
# RECORDED_CONDITIONS: fibrinogen-A647 binding fluorescence, higher = more signal
Measured composite z-score determines class: lower level: < 0.3; middle level: ≥ 0.3 and < 0.7; upper level: ≥ 0.7

As a guide, the following entries are already answered.
{"COMPOUND": "O=C1O[C@H](c2ccccc2)[C@H](c2ccccc2)N2[C@H]1[C@@H](C(=O)NC[C@H](O)c1ccccc1)[C@]1(C(=O)Nc3ccccc31)[C@H]2c1ccccc1OCCO", "LABEL_CLASS": "upper level"}
{"COMPOUND": "CC(C)(C)OC(=O)CC[C@]1(C(=O)N2CCCCC2)N=C(c2ccc(OCCCO)cc2)O[C@H]1c1ccccc1CN=[N+]=[N-]", "LABEL_CLASS": "upper level"}
{"COMPOUND": "CCCC[C@H]1OB(O)C[C@H]2C1=C(COc1ccccc1)Cn1c(=O)n(-c3ccccc3)c(=O)n12", "LABEL_CLASS": "middle level"}
{"COMPOUND": "C[C@@H]1ON(c2ccccc2)[C@H](c2ccccc2)[C@H]1C(=O)N1C(=O)OC[C@H]1Cc1ccccc1", "LABEL_CLASS": "lower level"}
{"COMPOUND": "Cc1ccc(F)cc1S(=O)(=O)N[C@@H]1CCN(C(=O)c2ccc(OC(C)C)cc2)C1", "LABEL_CLASS": "middle level"}
{"COMPOUND": "CC(C)C(CO)N1C(=O)[C@@H]2[C@H]3C(=O)OCC=C[C@H]3OC23C=CCN(CCN2CCOCC2)C(=O)[C@@H]13 (some centres not stated)", "LABEL_CLASS": "lower level"}

Task item: Given CCOC(=O)C[C@H]1[C@H](OC(=O)c2ccc(C(=O)c3ccccc3)cc2)[C@@H](NC(=O)C2CCCCC2)c2cc(OCCCO)ccc2N1C(=O)Cc1ccc(OC)cc1 , name the class its composite z-score places it in.
Reply: middle level

Task item: Next compound up: C=CCNC(=O)[C@H]1[C@@H]2C(=O)O[C@@H](c3ccccc3)[C@@H](c3ccccc3)N2[C@@H](c2ccc(O)cc2)[C@]12C(=O)N(C(=O)OCCOC)c1ccc(C#CC3(O)CCCCCC3)cc12
Reply: middle level

Task item: Also CN1C(=O)C2C=CC(C(O)C3CCCCC3)N(N(c3ccccc3)c3ccccc3)C2C1=O (configuration not stated) , if possible.
Reply: lower level

Task item: Please answer likewise for COc1ccc([Si](C)(C)[C@@H]2[C@@H](CC(=O)N(CCO)Cc3ccccc3)O[C@]3(C(=O)N(Cc4ccc(N5CCOC5=O)cc4)c4ccccc43)[C@H]2C)cc1
Reply: middle level

Task item: Next compound: O=C1O[C@@H](c2ccccc2)[C@@H](c2ccccc2)N2[C@@H](c3ccc(O)cc3)[C@]3(C(=O)Nc4ccc(C#CC5(O)CCCCCC5)cc43)[C@@H](C(=O)N3CCN(c4ncccn4)CC3)[C@H]12
Reply: upper level

Task item: Next compound: O=C1C[C@@](C(=O)O)(c2ccc([N+](=O)[O-])cc2)[C@@H](c2ccc(CO)cc2)N1CC12CC3CC(CC(C3)C1)C2
Reply: upper level

Task item: Now this one: COCCOC(=O)N1C(=O)[C@@]2(c3cc(C#CCNC(N)=O)ccc31)[C@H](C(N)=O)[C@H]1C(=O)O[C@H](c3ccccc3)[C@H](c3ccccc3)N1[C@@H]2c1ccc(OCCO)cc1
Reply: middle level

====

# TESTED_ON: Calmodulin-1 (Homo sapiens) (UniProt P0DP23)
# PROTOCOL_DETAILS: small molecules binding calmodulin-1 with EGTA – biochemical, small-molecule microarray, Cy5-labelled CALM1, profiling panel (AID 1111);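 note: labelled calmodulin applied in Tris saline Tween buffer holding calcium plus EGTA and DTT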
# RECORDED_CONDITIONS: Cy5-CALM1 binding fluorescence, higher = more signal
We begin with a simple list: items and their reported composite z-score.
Give the figure only, with no unit attached.

Sample records with composite z-score:
{"MOLECULE": "CC(C)(C)OC(=O)CC[C@@]1(C(=O)N2CCCCC2)N=C(c2ccc(OCCCO)cc2)O[C@@H]1c1ccccc1N=[N+]=[N-]", "composite z-score": 1.07}
{"MOLECULE": "COCCOC(=O)N1C(=O)[C@@]2(c3cc(C#CCC(C(=O)OC)C(=O)OC)ccc31)[C@H](C(=O)N1CCCCCCC1)[C@H]1C(=O)O[C@H](c3ccccc3)[C@H](c3ccccc3)N1[C@@H]2c1ccc(O)cc1", "composite z-score": 1.1}
{"MOLECULE": "COc1cccc(C[C@H]2C[C@@H](CO[Si](C(C)C)(C(C)C)C(C)C)N3C(=O)[C@]4(C(C)=O)O[C@]23[C@H]2C(=O)N(C)C(=O)[C@H]24)c1", "composite z-score": 0.293}
{"MOLECULE": "O=C(CS)NCCCCCNC(=O)[C@@H]1C[C@@H]2C(=O)N3CCC[C@H]3C(=O)N2[C@@H]1c1ccc(O)cc1", "composite z-score": 0.195}
{"MOLECULE": "O=C1O[C@H](c2ccccc2)[C@H](c2ccccc2)N2[C@H]1[C@@H](C(=O)N1CCN(c3ncccn3)CC1)[C@]1(C(=O)Nc3ccc(C#CCCO)cc31)[C@H]2c1ccccc1OCCO", "composite z-score": 1.46}

Task item: What value of composite z-score has been recorded for this entry: O=C1O[C@@H](c2ccccc2)[C@@H](c2ccccc2)N2[C@@H](c3ccc(O)cc3)[C@]3(C(=O)Nc4ccc(C#CC5=CCCCC5)cc43)[C@@H](C(=O)Nc3nc4ccccc4s3)[C@H]12
Reply: 1.48

Task item: Field entry: COCCOC(=O)N1C(=O)[C@@]2(c3cc(C#CCCO)ccc31)[C@H](C(=O)N1CCc3cc(OC)c(OC)cc3C1)[C@H]1C(=O)O[C@H](c3ccccc3)[C@H](c3ccccc3)N1[C@@H]2c1ccc(OCCO)cc1
Reply: 0.842

Task item: Input COC(=O)[C@@]1(Cc2ccc(F)cc2)[C@H]2c3cc(C(=O)N4CCCC4)n(Cc4ccccc4)c3C[C@H]2CN1C(=O)c1ccccc1
Reply: 1.98

Task item: Would you mind doing COCC(=C=CC[C@@H](O)c1ccccc1OCCO)C[C@@H](O)c1ccccn1 as well?
Reply: -0.153

Task item: Again, but for C#CCOC(=O)N[C@H](C=CCCCC)c1ccccc1
Reply: 0.44

Task item: // same read-out, input: CCCCCCC#C[Si](O[C@H](c1ccccc1)c1cn(Cc2cccc(Cl)c2)nn1)(C(C)C)C(C)C
Reply: -0.0008

Task item: Same read-out for [N-]=[N+]=NCc1ccccc1C[C@@]1(C(=O)NCCN2CCOCC2)N=C(c2ccc(OCCCO)cc2)O[C@@H]1c1ccccc1CN=[N+]=[N-] ?
Reply: 1.68

====

# PROTOCOL_DETAILS: compound effects on differentiated 3T3-L1 adipocyte viability – cell-based, 3T3-L1 adipocytes, calcein-AM fluorescence, 48 h, basal, profiling panel (AID 1163); note: test concentration not given here
# RECORDED_CONDITIONS: 3T3-L1 adipocytes viability, higher = more signal
hey, just use fulfilled if measured z-score is less than 0.4, otherwise not fulfilled

Task item: Strictly below 0.4 in z-score? C[N+](C)(C)CCCCCCNC(=O)[C@@H]1C[C@@H]2C(=O)NCC(=O)N2[C@@H]1c1ccc(O)cc1
Reply: fulfilled

====

# PROTOCOL_DETAILS: inhibition of PAO1 biofilm formation – strain PAO1, LB-PBS medium, absorbance 600 nm, primary screen (AID 1176); note: test concentration not given here
# RECORDED_CONDITIONS: P. aeruginosa PAO1 growth/biofilm, A600, 12 h; higher = more signal
Active and inactive are the calls of the source. No rule for the calls is given here.
Recorded z-score, one value per entry.

Sample answers from the record:
{"MOLECULE": "C=C[C@H](C)[C@H](OC(=O)Nc1ccc(SC)cc1)c1ccc(O)c2ccccc12", "OBSERVED_MEASUREMENT": "0.802 (inactive)"}
{"MOLECULE": "[N-]=[N+]=NCc1ccccc1[C@H]1OC(c2ccc(OCCCO)cc2)=N[C@@]1(Cc1ccccc1)C(N)=O", "OBSERVED_MEASUREMENT": "-0.195 (inactive)"}
{"MOLECULE": "COc1ccc([Si](C)(C)[C@@H]2[C@@H](CCO)O[C@]3(C(=O)N(Cc4cccc(N5C(=O)COc6ccccc65)c4)c4ccccc43)[C@H]2C)cc1", "OBSERVED_MEASUREMENT": "1.3 (inactive)"}
{"MOLECULE": "O=C1c2ccccc2[C@](Cc2ccccc2I)(C(=O)NCC(F)(F)F)[C@H](c2ccc(CO)cc2)N1Cc1ccccc1", "OBSERVED_MEASUREMENT": "-0.0344 (inactive)"}
{"MOLECULE": "COCCOC(=O)N1C(=O)[C@@]2(c3ccccc31)[C@H](c1ccccc1OCCO)N1[C@H](c3ccccc3)[C@H](c3ccccc3)OC(=O)[C@H]1[C@@H]2C(=O)N1CCc2cc(OC)c(OC)cc2C1", "OBSERVED_MEASUREMENT": "1.96 (inactive)"}
{"MOLECULE": "Cc1ccc(C(C)CC(O)C2C=CC3C(=O)N(Cc4ccccc4)C(=O)C3N2n2cnnc2)o1 (centres undefined)", "OBSERVED_MEASUREMENT": "0.368 (inactive)"}
{"MOLECULE": "CC(C)CNC(=O)[C@@]1(C)c2ccccc2C(=O)N(Cc2ccccc2)[C@H]1c1ccc(CO)cc1", "OBSERVED_MEASUREMENT": "-0.273 (inactive)"}
{"MOLECULE": "COC(=O)[C@@]1(Cc2ccc(OC)cc2)[C@H]2c3cc(C(=O)N4CCCC4)n(CCF)c3C[C@H]2CN1C(=O)c1ccccc1", "OBSERVED_MEASUREMENT": "1.06 (inactive)"}

Task item: Look at this molecule and give its reported z-score. C[N+](C)(C)CCCC[C@@H]1NC(=O)[C@@H]2C[C@H](C(=O)O)[C@H](c3cccc(OCCO)c3)N2C1=O
Reply: -0.351 (inactive)

Task item: Another molecule: C[N+](C)(C)CCCCNC(=O)[C@H]1C[C@H]2C(=O)NCC(=O)N2[C@H]1c1ccc(O)cc1
Reply: 0.28 (inactive)

Task item: Ok, now C[C@H]1NC(=O)C([C@@H](C)OCc2ccccc2)NC(=O)[C@@]23C(=O)N[C@@H](Cc4ccccc4)C2[C@H](C)[C@@]2(C)O[C@H]2C3/C=C/CC/C=C/CNC1=O (some centres undefined)
Reply: -0.766 (inactive)

Task item: Next entry: CC(C)CN1C(=O)[C@@]2(Cc3ccccc31)c1ccccc1C(=O)N(Cc1ccccc1)[C@H]2c1ccc(CO)cc1
Reply: 0.745 (inactive)

Task item: Likewise for CN(C)C(=O)[C@@]1(Cc2ccccc2N=[N+]=[N-])N=C(c2ccc(OCCCO)cc2)O[C@H]1c1ccccc1N=[N+]=[N-] ?
Reply: -0.73 (inactive)

Task item: Would you kindly repeat that for COC(=O)[C@]1(Cc2ccccc2CN=[N+]=[N-])N=C(c2ccc(OCCCO)cc2)O[C@@H]1c1ccccc1CN=[N+]=[N-] ?
Reply: 3.93 (inactive)

Task item: What do you get for COC(=O)[C@@]1(Cc2ccc(F)cc2)[C@H]2c3cc(C(=O)N(C)C)n(CCSCCO)c3C[C@H]2CN1C(=O)c1ccccc1 ?
Reply: 0.399 (inactive)
